Ref: PubChem BioAssay

Target: Pantothenate synthetase (Mycobacterium tuberculosis (strain ATCC 25618 / H37Rv)) (UniProt P9WIL5)
Sequence (P9WIL5 whole entry, looked up): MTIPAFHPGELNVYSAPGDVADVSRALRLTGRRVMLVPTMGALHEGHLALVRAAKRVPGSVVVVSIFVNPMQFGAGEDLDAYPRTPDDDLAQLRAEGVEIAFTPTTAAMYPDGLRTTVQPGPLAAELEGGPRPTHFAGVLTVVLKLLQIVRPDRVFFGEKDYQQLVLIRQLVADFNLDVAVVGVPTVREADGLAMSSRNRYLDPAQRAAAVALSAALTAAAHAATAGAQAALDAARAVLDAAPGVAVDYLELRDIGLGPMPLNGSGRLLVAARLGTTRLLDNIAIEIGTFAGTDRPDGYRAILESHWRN
Assay: Coupled enzyme confirmation of inhibitors against recombinant Mtb PanC (AID 375);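 also: 0% = full reaction with vehicle and 100% = no enzyme background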
Details: coupled enzyme assay; at 10 µM, hits give high values
REPORTED_METRIC: inhibition (%)

>>> number("CC(=O)c1cn(CC(=O)NCc2ccc3c(c2)OCO3)c2ccccc12")
0
>>> number("COc1ccccc1-c1cc(C(=O)NCCCn2ccnc2)no1")
0
>>> number("C(=N/n1c2ccccc2c2ccccc21)/c1ccco1")
0
>>> number("O=C(Nc1ccc(Cl)c(C(F)(F)F)c1)N1CCCC(O)C1 (stereo unspecified)")
4
>>> number("CSc1nc(NC(C)(C)C)nc(Oc2ccc(=O)[nH]n2)n1")
0
>>> number("CNC(=O)c1nnn(Cc2ccccc2)c1NC(C)=O")
2
>>> number("COc1ccc(C2=Nn3c(nnc3-c3ccccc3)SC2)cc1OC")
0
>>> number("CCOc1cc(C2C(C#N)=C(N)Oc3n[nH]c(CC)c32)ccc1OCCN1CCOCC1 (stereo unspecified)")
0
>>> number("CCN(c1ccc(OC)cc1)S(=O)(=O)c1ccc2c(c1)CCN2C(=O)CCC(=O)O")
0
>>> number("O=C(CSc1ccc(Cl)cc1)OCc1nnc(-c2ccccc2)o1")
1
>>> number("CCC(=O)Oc1ccc(/C(CC)=C(\\CC)c2ccc(OC(=O)CC)cc2)cc1")
0
>>> number("Cc1c(NC(=O)c2noc3c2CCc2ccccc2-3)c(=O)n(-c2ccccc2)n1C")
0
>>> number("CC(=O)O[C@H]1C(=O)[C@]2(C)[C@H]([C@H](OC(=O)c3ccccc3)[C@]3(O)C[C@H](OC(=O)[C@H](O)[C@@H](NC(=O)c4ccccc4)c4ccccc4)C(C)=C1C3(C)C)[C@]1(OC(C)=O)CO[C@@H]1C[C@@H]2O")
9
>>> number("CCn1c(CSc2nnc(-c3cccnc3)n2-c2ccccc2C)nc2cc(C(=O)O)ccc21")
0
>>> number("CC(C)C1N=C2c3ccccc3N=C(SCc3cc(=O)n4ccccc4n3)N2C1=O (stereo unspecified)")
6
>>> number("CCc1nnc(NC(=O)CSc2nnc(CSc3nc(C)cc(C)n3)n2CC)s1")
1
>>> number("O=C(O)[C@@H]1CCCN1c1ncnc2sc3c(c12)CCC3")
6
>>> number("O=C(NC(C(=O)c1ccccc1)n1ccc(=O)[nH]c1=O)c1ccccc1 (stereo unspecified)")
0
>>> number("COCCNC(=O)CN(C)S(=O)(=O)c1ccc2c(c1)OCCO2")
7
>>> number("Cc1cc(C)n2c(SCCN3C(=O)c4ccccc4C3=O)nnc2n1")
0
>>> number("CCOc1ccc(NC(=O)C(C)Sc2nnc(C)n2C)cc1 (stereo unspecified)")
0

###

// values below are reported inhibition
Target: Pantothenate synthetase (Mycobacterium tuberculosis (strain ATCC 25618 / H37Rv))
Experiment: Coupled enzyme confirmation of inhibitors against recombinant Mtb PanC (AID 375);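 also: 0% = full reaction with vehicle and 100% = no enzyme background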
Conditions: coupled enzyme assay; at 10 µM, hits give high values
Activity calls are given as the source filed them. No rule for the calls is given here.
REPORTED_METRIC: inhibition

>>> result("C=CCC(Nc1ccco1)c1ccccc1 (stereo unspecified)")
"1% (inactive)"
>>> result("COc1ccccc1N1CCN(C(=O)c2cc(-c3ccc(Cl)c(Cl)c3)on2)CC1")
"0% (inactive)"
>>> result("CC1Oc2ccccc2N(CC(=O)NCc2cccs2)C1=O (stereo unspecified)")
"0% (inactive)"
>>> result("CCc1ccccc1OCCCCCNCCO")
"3% (inactive)"
>>> result("O=C(NCc1ccco1)c1cccc(S(=O)(=O)N2CCCCC2)c1")
"0% (inactive)"
>>> result("CN(c1cccc(NC(=O)COc2ccccc2)c1)S(C)(=O)=O")
"6% (inactive)"
